src = patent US20250326771A1

MEASURED_TARGET: cIAP1-BIR3 (Homo sapiens (Human), UniProt Q13490)
Sequence (Q13490 253-363): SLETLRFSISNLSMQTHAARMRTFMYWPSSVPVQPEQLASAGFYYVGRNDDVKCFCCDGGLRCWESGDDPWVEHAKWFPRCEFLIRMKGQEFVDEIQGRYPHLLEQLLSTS
PROCEDURE_DETAILS: BIR binding assay (FRET competition), cIAP1 BIR3
CONDITION_DESCRIPTION: fold separation (FS) for cIAP1
Experimental: The BIR domain binding assays are FRET based competition assays that utilize His-tagged versions of each of the BIR2 and BIR3 domains from cIAP1, cIAP2, and XIAP (each domain assayed separately) each at a custom optimal concentration and a probe, 200 nM SMAC/DIABLO peptide […] labelled with AlexaFluor647 (part #crb 1110326h, Discovery Peptides). The assay is conducted in 50 mM HEPES, […], 1 mM CHAPS, 5% Glycerol, 1 mM DTT, in dI water with a final pH of 7.4 and final volume of 20 uL. […]
REPORTED_METRIC: cIAP1 BIR3 vs BIR2 separation window

1. C[C@@H]1CN(CC(=O)N2CC(C)(C)c3ncc(N(C)c4ccc(F)cc4)cc32)[C@@H](CN2CCO[C@H](COc3cccc(OC[C@@H]4CN(C[C@H]5CN[C@H](C)CN5CC(=O)N5CC(C)(C)c6ncc(N(C)c7ccc(F)cc7)cc65)CCO4)c3)C2)CN1
+++ (10,000>FS>1,000)
2. C[C@@H]1CN(CC(=O)N2CC(C)(C)c3ncc(Cc4ccc(Br)cc4)cc32)[C@@H](CN2CCO[C@H](COc3cccc(OC[C@@H]4CN(C[C@H]5CN[C@H](C)CN5CC(=O)N5CC(C)(C)c6ncc(Cc7ccc(Br)cc7)cc65)CCO4)c3)C2)CN1
+++ (10,000>FS>1,000)
3. C[C@@H]1CN(CC(=O)N2CC(C)(C)c3ncc(Cc4ccc(C(F)(F)F)cc4)cc32)[C@@H](CN2CCO[C@H](COc3cccc(OC[C@@H]4CN(C[C@H]5CN[C@H](C)CN5CC(=O)N5CC(C)(C)c6ncc(Cc7ccc(C(F)(F)F)cc7)cc65)CCO4)c3)C2)CN1
+++ (10,000>FS>1,000)
4. C[C@@H]1CN(CC(=O)N2CC(C)(C)c3[nH]c(=O)c(Cc4ccc(F)cc4)cc32)[C@@H](CN2CCN(C(=O)/C=C/c3ccc(/C=C/C(=O)N4CCN(C[C@H]5CN[C@H](C)CN5CC(=O)N5CC(C)(C)c6[nH]c(=O)c(Cc7ccc(F)cc7)cc65)[C@H](C)C4)cc3)C[C@H]2C)CN1
++ (1,000>FS>100)
5. C[C@@H]1CN(CC(=O)N2CC(C)(C)c3[nH]c(=O)c(Cc4ccc(F)cc4)cc32)[C@@H](CN2CCO[C@H](C(=O)NCCCN3CCN(CCCNC(=O)[C@@H]4CN(C[C@H]5CN[C@H](C)CN5CC(=O)N5CC(C)(C)c6[nH]c(=O)c(Cc7ccc(F)cc7)cc65)CCO4)CC3)C2)CN1
+++ (10,000>FS>1,000)
6. C[C@@H]1CN(CC(=O)N2CC(C)(C)c3[nH]c(=O)c(Cc4ccc(F)cc4)cc32)[C@@H](CN2CCC[C@H](NC(=O)Cc3ccc(CC(=O)N[C@H]4CCCN(C[C@H]5CN[C@H](C)CN5CC(=O)N5CC(C)(C)c6[nH]c(=O)c(Cc7ccc(F)cc7)cc65)C4)cc3)C2)CN1
++ (1,000>FS>100)
7. C[C@@H]1CN(CC(=O)N2CC(C)(C)c3[nH]c(=O)c(Cc4ccc(F)cc4)cc32)[C@@H](CN2CCC(COc3cccc(OCC4CCN(C[C@H]5CN[C@H](C)CN5CC(=O)N5CC(C)(C)c6[nH]c(=O)c(Cc7ccc(F)cc7)cc65)CC4)c3)CC2)CN1
+++ (10,000>FS>1,000)

----------
MEASURED_TARGET: XIAP-BIR3 (Homo sapiens (Human), UniProt P98170)
Sequence (P98170 241-356): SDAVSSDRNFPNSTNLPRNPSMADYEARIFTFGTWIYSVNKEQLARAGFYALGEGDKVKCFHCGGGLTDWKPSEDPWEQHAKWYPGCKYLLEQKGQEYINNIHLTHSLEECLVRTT
PROCEDURE_DETAILS: BIR binding assay (FRET competition), XIAP BIR3
Listing of recorded IC50 by entry.
REPORTED_METRIC: IC50

1) C[C@@H]1CN(CC(=O)N2CC(C)(C)c3[nH]c(=O)c(Cc4c(F)cc(F)cc4F)cc32)[C@@H](CN2CCO[C@H](C(=O)NCc3ccc(CNC(=O)[C@@H]4CN(C[C@H]5CN[C@H](C)CN5CC(=O)N5CC(C)(C)c6[nH]c(=O)c(Cc7c(F)cc(F)cc7F)cc65)CCO4)cc3)C2)CN1
15.8 to 31.6 nM
2) C[C@@H]1CN(CC(=O)N2CC(C)(C)c3[nH]c(=O)c(Cc4ccc(F)cc4)cc32)[C@@H](CN2CCO[C@H](COc3ccc(S(=O)(=O)c4ccc(OC[C@@H]5CN(C[C@H]6CN[C@H](C)CN6CC(=O)N6CC(C)(C)c7[nH]c(=O)c(Cc8ccc(F)cc8)cc76)CCO5)cc4)cc3)C2)CN1
31.6 to 501 nM
3) C[C@@H]1CN(CC(=O)N2CC(C)(C)c3[nH]c(=O)c(Cc4ccc(F)cc4)cc32)[C@@H](CN2CCO[C@H](C(=O)NCCOCCNC(=O)[C@@H]3CN(C[C@H]4CN[C@H](C)CN4CC(=O)N4CC(C)(C)c5[nH]c(=O)c(Cc6ccc(F)cc6)cc54)CCO3)C2)CN1
7.94 to 15.8 nM
4) C[C@@H]1CN(CC(=O)N2CC(C)(C)c3[nH]c(=O)c(Cc4ccc(F)cc4)cc32)[C@@H](CN2CCC[C@@H](NC(=O)Cc3ccc(CC(=O)N[C@@H]4CCCN(C[C@H]5CN[C@H](C)CN5CC(=O)N5CC(C)(C)c6[nH]c(=O)c(Cc7ccc(F)cc7)cc65)C4)cc3)C2)CN1
15.8 to 31.6 nM
5) C[C@@H]1CN(CC(=O)N2CC(C)(C)c3[nH]c(=O)c(Cc4ccc(F)cc4)cc32)[C@@H](CN2CCO[C@H](C(=O)N(C)CCCCN(C)C(=O)[C@@H]3CN(C[C@H]4CN[C@H](C)CN4CC(=O)N4CC(C)(C)c5[nH]c(=O)c(Cc6ccc(F)cc6)cc54)CCO3)C2)CN1
7.94 to 15.8 nM
6) C[C@@H]1CN(CC(=O)N2CC(C)(C)c3[nH]c(=O)c(Cc4ccc(F)cc4)cc32)[C@@H](CN2CCO[C@H](COc3ccccc3OC[C@@H]3CN(C[C@H]4CN[C@H](C)CN4CC(=O)N4CC(C)(C)c5[nH]c(=O)c(Cc6ccc(F)cc6)cc54)CCO3)C2)CN1
15.8 to 31.6 nM
7) C[C@@H]1CN(CC(=O)N2CC(C)(C)c3[nH]c(=O)c(Cc4ccc(F)cc4)cc32)[C@@H](CN2CCO[C@H](COc3ccc(-c4ccccc4)c(OC[C@@H]4CN(C[C@H]5CN[C@H](C)CN5CC(=O)N5CC(C)(C)c6[nH]c(=O)c(Cc7ccc(F)cc7)cc65)CCO4)c3)C2)CN1
7.94 to 15.8 nM

----------
Listing of recorded pIC50 by entry.
MEASURED_TARGET: cIAP2-BIR2 (Homo sapiens (Human))
Sequence (Q13489 158-242): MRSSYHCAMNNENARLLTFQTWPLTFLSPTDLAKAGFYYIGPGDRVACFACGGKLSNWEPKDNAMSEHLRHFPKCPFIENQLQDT
PROCEDURE_DETAILS: BIR binding assay (FRET competition), cIAP2 BIR2
pIC50: −log10 of the molar value.
REPORTED_METRIC: pIC50

1) C[C@@H]1CN(CC(=O)N2CC(C)(C)c3[nH]c(=O)c(Cc4ccc(F)cc4)cc32)[C@@H](CN2CCO[C@H](C(=O)NC3CCN(C(=O)[C@@H]4CN(C[C@H]5CN[C@H](C)CN5CC(=O)N5CC(C)(C)c6[nH]c(=O)c(Cc7ccc(F)cc7)cc65)CCO4)CC3)C2)CN1 [Example 129]
5.50 to 6.00
2) C[C@@H]1CN(CC(=O)N2CC(C)(C)c3[nH]c(=O)c(Cc4ccc(F)cc4)cc32)[C@@H](CN2CCO[C@H](COCc3c(F)c(F)c(COC[C@@H]4CN(C[C@H]5CN[C@H](C)CN5CC(=O)N5CC(C)(C)c6[nH]c(=O)c(Cc7ccc(F)cc7)cc65)CCO4)c(F)c3F)C2)CN1 [Example 85]
5.00 to 5.50
3) C[C@@H]1CN(CC(=O)N2CC(C)(C)c3[nH]c(=O)c(Cc4ccc(F)cc4)cc32)[C@@H](CN2CCO[C@H](COc3cccc(OC[C@@H]4CN(C[C@H]5CN[C@H](C)CN5CC(=O)N5CC(C)(C)c6[nH]c(=O)c(Cc7ccc(F)cc7)cc65)CCO4)c3F)C2)CN1 [Example 72]
5.50 to 6.00
4) C[C@@H]1CN(CC(=O)N2CC(C)(C)c3[nH]c(=O)c(Cc4ccc(F)cc4)cc32)[C@@H](CN2CCC(CNC(=O)c3ccc(C(=O)NCC4CCN(C[C@H]5CN[C@H](C)CN5CC(=O)N5CC(C)(C)c6[nH]c(=O)c(Cc7ccc(F)cc7)cc65)CC4)cc3)CC2)CN1 [Example 101]
5.00 to 5.50

----------
Listing of recorded pIC50 by entry.
MEASURED_TARGET: XIAP-BIR3 (Homo sapiens (Human))
PROCEDURE_DETAILS: BIR binding assay (FRET competition), XIAP BIR3
pIC50: −log10 of the molar value.
REPORTED_METRIC: pIC50

1) C[C@@H]1CN(CC(=O)N2CC(C)(C)c3[nH]c(=O)c(Cc4ccc(F)cc4)cc32)[C@@H](CN2CCO[C@H](C(=O)NCCCC(=O)N3CCN(C[C@H]4CN[C@H](C)CN4CC(=O)N4CC(C)(C)c5[nH]c(=O)c(Cc6ccc(F)cc6)cc54)[C@H](C)C3)C2)CN1
7.80 to 8.10
2) C[C@@H]1CN(CC(=O)N2CC(C)(C)c3[nH]c(=O)c(Oc4ccc(Br)cc4)cc32)[C@@H](CN2CCO[C@H](C(=O)NCc3ccc(CNC(=O)[C@@H]4CN(C[C@H]5CN[C@H](C)CN5CC(=O)N5CC(C)(C)c6[nH]c(=O)c(Oc7ccc(Br)cc7)cc65)CCO4)cc3)C2)CN1
6.30 to 7.50
3) C[C@@H]1CN(CC(=O)N2CC(C)(C)c3[nH]c(=O)c(Cc4ccc(F)cc4)cc32)[C@@H](CN2CCN(C(=O)COc3ccc(OCC(=O)N4CCN(C[C@H]5CN[C@H](C)CN5CC(=O)N5CC(C)(C)c6[nH]c(=O)c(Cc7ccc(F)cc7)cc65)[C@H](C)C4)cc3)C[C@H]2C)CN1
7.50 to 7.80
4) C[C@@H]1CN(CC(=O)N2CC(C)(C)c3[nH]c(=O)c(Cc4ccc(F)cc4)cc32)[C@@H](CN2CCC(CN(C)C(=O)Cc3ccc(CC(=O)N(C)CC4CCN(C[C@H]5CN[C@H](C)CN5CC(=O)N5CC(C)(C)c6[nH]c(=O)c(Cc7ccc(F)cc7)cc65)CC4)cc3)CC2)CN1
7.80 to 8.10
